Target: human B1R (bradykinin receptor 1) (Homo sapiens)
Construct: expressed in transfected cells; host or cells: CHO K1 cells
Sequence (P46663 whole entry): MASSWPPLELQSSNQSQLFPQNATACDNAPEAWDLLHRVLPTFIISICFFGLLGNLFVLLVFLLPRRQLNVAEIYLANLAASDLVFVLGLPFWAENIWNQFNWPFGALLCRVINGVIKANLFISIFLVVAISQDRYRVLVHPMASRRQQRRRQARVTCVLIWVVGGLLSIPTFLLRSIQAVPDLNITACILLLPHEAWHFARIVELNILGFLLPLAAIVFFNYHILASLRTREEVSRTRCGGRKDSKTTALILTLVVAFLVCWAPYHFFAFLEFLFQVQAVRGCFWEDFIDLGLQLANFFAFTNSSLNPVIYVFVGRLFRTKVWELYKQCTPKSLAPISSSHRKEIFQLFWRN
Assay: FLIPR Ca2+ assay (Fluo-4) on CHO K1 cells stably transfected with the human B1R gene (hB1R cells): % inhibition at 10 μM / IC50, agonist Lys-Des-Arg9-bradykinin
Format: cell-based
Conditions: CHO-K1, human B1R
Excerpt: The agonistic or antagonistic action of substances can be quantified on the bradykinin receptor 1 (B1R) of the human and rat species with ectopically expressing cell lines (CHO K1 cells) and with the aid of a Ca^2+-sensitive dyestuff (Fluo-4) in a fluorescent imaging plate reader (FLIPR). […] The agonistic or antagonistic action of substances can be determined on the bradykinin receptor 1 (B1R) of the human and rat species with the following assay. […]
measurement label: inhibition at 10 µM

Query string: Param item = O=C(c1cccc2c1CC[C@H]2N1Cc2cccc(Cl)c2C1=O)N1CCC2(CC1)CCN(c1ccncc1)CC2 [Example H-170] ; retrieve measured inhibition at 10 µM.
Result string: 56%

Query string: Okay, and Cc1ccccc1C(=O)N[C@@H]1CCc2ccc(C(=O)N3CCC4(CCN(c5ccncc5)CC4)C3)cc21 [Example H-53] ?
Result string: 100%

Query string: Okay, and O=C(NC1CCc2ccc(C(=O)N3CCC4(CC3)CCN(c3ccncc3)C4)cc21)c1sccc1Cl (stereo not shown) [Ind_CC-042] ?
Result string: 98%

Query string: Okay, and O=C(c1ccc2c(c1)C(N(C(=O)c1ccccc1Cl)C1CC1)CC2)N1CCC2(CC1)CCN(c1ccncc1)CC2 (stereo not shown) [Ind_CC-113] ?
Result string: 98%

----------
Molecular target: rat B1R (bradykinin receptor 1) (Rattus norvegicus, UniProt P97583)
Construct: expressed in transfected cells; host or cells: CHO K1 cells
Sequence (P97583 whole entry): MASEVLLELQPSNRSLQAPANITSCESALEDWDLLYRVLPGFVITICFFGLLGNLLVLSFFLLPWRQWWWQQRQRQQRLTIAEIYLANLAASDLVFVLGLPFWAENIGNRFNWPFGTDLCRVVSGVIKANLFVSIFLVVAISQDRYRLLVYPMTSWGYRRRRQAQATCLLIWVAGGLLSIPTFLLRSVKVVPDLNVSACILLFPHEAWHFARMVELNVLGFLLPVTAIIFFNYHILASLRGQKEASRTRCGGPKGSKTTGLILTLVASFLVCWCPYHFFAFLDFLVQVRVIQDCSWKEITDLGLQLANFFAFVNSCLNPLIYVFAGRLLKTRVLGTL
Assay: FLIPR Ca2+ assay (Fluo-4) on CHO K1 cells stably transfected with the B1R gene of the rat (rB1R cells): % inhibition at 10 μM / IC50, agonist Des-Arg9-bradykinin
Format: cell-based
Settings: CHO-K1, rat B1R
Each entry gets rule not met if its inhibition at 10 µM stays under 90%, and rule met if its inhibition at 10 µM is 90% or above.

Query string: Quick check, inhibition at 10 µM >= 90%? Cn1nnc2cc(CN3CCC4(CC3)CCN(C(=O)c3ccc5c(c3)C(NC(=O)c3cccc(Cl)c3Cl)CC5)CC4)ccc21 (stereo not shown)
Result string: rule met

Query string: Okay, and O=C(NC1CCc2ccc(C(=O)N3CCC4(CCN(Cc5ccc(F)cc5Cl)CC4)CC3)cc21)c1cc(C(F)(F)F)ccc1Cl (stereo not shown) ?
Result string: rule not met

Query string: Okay, and COc1ccc(CN2CCC3(CC2)CCN(C(=O)c2ccc4c(c2)C(NC(=O)c2cc(C(F)(F)F)ccc2Cl)CC4)CC3)cc1F (stereo not shown) ?
Result string: rule not met

Query string: Okay, and CN(C(=O)C1CCCC1)C1CCc2ccc(C(=O)N3CCC4(CC3)CCN(c3ccncc3)CC4)cc21 (stereo not shown) ?
Result string: rule met

Query string: Okay, and O=C(N[C@@H]1CCc2ccc(C(=O)N3CCC4(CCC(N5CCn6ncnc6C5)CC4)CC3)cc21)c1ccccc1Cl ?
Result string: rule not met

----------
Target: human B1R (bradykinin receptor 1) (Homo sapiens)
Construct: expressed in transfected cells; host or cells: CHO K1 cells
Assay: FLIPR Ca2+ assay (Fluo-4) on CHO K1 cells stably transfected with the human B1R gene (hB1R cells): % inhibition at 10 μM / IC50, agonist Lys-Des-Arg9-bradykinin
Assay type: cell-based
Details: CHO-K1, human B1R
Each entry gets -1 if its inhibition at 10 µM stays under 80%, and 1 if its inhibition at 10 µM is 80% or above.

Query string: Quick check, inhibition at 10 µM >= 80%? N#Cc1ccccc1CN1CCC2(CC1)CCN(C(=O)c1ccc3c(c1)C(NC(=O)c1ccccc1Cl)CC3)CC2 (stereo not shown)
Result string: -1

Query string: Okay, and O=C(N[C@@H]1CCCc2ccc(C(=O)N3CCC4(CC3)CCN(c3ccncc3)C4)cc21)c1ccccc1Cl ?
Result string: 1

Query string: Okay, and CN1CCN(C(=O)C2CCC3(CC2)CCN(C(=O)c2ccc4c(c2)[C@H](NC(=O)c2ccccc2Cl)CC4)CC3)CC1 ?
Result string: -1

Query string: Okay, and O=C(NC1CCc2ccc(C(=O)N3CCC4(CCC(O)(c5ccncc5)CC4)C3)cc21)c1ccccc1Cl (stereo not shown) ?
Result string: -1

Query string: Okay, and Cc1ccccc1CC(=O)N[C@@H]1CCc2ccc(C(=O)N3CCC4(CCN(c5ccncc5)CC4)C3)cc21 ?
Result string: 1

Query string: Okay, and O=C(Cc1ccccc1Cl)NC1CCc2ccc(C(=O)N3CCC4(CC3)CCN(c3ccncc3)CC4)cc21 (stereo not shown) ?
Result string: 1
